Provide the recorded % R (amount retained on screen) for the entries that follow.
experiment: Particle size distribution by sieve analysis; type: physicochemical; details: US Mesh 80 (180 μm)
Answers are plain numbers, in %.

Examples with their reported % R (amount retained on screen) follow.
| molecule | % R (amount retained on screen) (%) |
| --- | --- |
| COc1ccccc1OCC(O)CO (single isomer, unassigned) [GP-D, guaifenesin] | 3.2 |
| COc1ccccc1OCC(O)CO (single isomer, unassigned) [GP-B, guaifenesin] | 2.0 |
| COc1ccccc1OCC(O)CO (single isomer, unassigned) [GP-C, guaifenesin] | 0 |

Then there is this molecule:
## Input Could you tell me which % R (amount retained on screen) is on file for COc1ccccc1OCC(O)CO (single isomer, unassigned) [GP-A, guaifenesin] ?
## Output 2.4
